# pIC50 annotations
- assay system: S. aureus RnpA (Staphylococcus aureus)
- Construct: hexahistidine (His6) (N); made in house; host or cells: E. coli BL21 (DE3), plasmid pEXP5-nt
- Sequence (P0A0H5 whole entry): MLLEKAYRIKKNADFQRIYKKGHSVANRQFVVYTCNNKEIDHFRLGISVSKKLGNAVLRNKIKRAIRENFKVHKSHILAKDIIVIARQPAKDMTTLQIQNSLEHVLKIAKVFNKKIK
- assay explanation: RnpA-mediated in vitro spa mRNA degradation assay
- Assay type: biochemical
- assay setup: read-out: Degradation IC50
- Method: RnpA-mediated RNA degradation assays were performed as previously described. […] The inhibitory effects of the test compounds were calculated using Biorad ImageLab densitometry software to measure the signal intensity of the spa band in the negative control (spa alone), positive control (RnpA + spa + DMSO), and experimental samples (RnpA + spa + test compound) separated on a 1.2% formaldehyde-agarose gel. […]
pIC50: −log10 of the molar value.
property name: pIC50

{"compound": "Nc1sc2c(c1C(=O)Nc1ccc(Cl)cc1)CCCCC2 [JR1c]", "property name": "pIC50", "relation": "=", "readout number": 3.76}
{"compound": "O=C(Nc1ccc(Cl)cc1)c1c(NC(=O)C(F)(F)F)sc2c1CCCCC2 [JR1]", "property name": "pIC50", "relation": "=", "readout number": 4.20}
{"compound": "CCC1CCCCN1C(=O)Nc1cc(Cl)cc(Cl)c1 (centres unmarked) [JC3]", "property name": "pIC50", "relation": "=", "readout number": 3.30}
{"compound": "CN1CCN(C(=O)Nc2cc(Cl)cc(Cl)c2)CC1 [JC6]", "property name": "pIC50", "relation": "≤", "readout number": 3.35}
{"compound": "O=C(Nc1cc(Cl)cc(Cl)c1)N1CCCCCC1 [JC5]", "property name": "pIC50", "relation": "=", "readout number": 3.70}
{"compound": "COc1ccc(NC(=O)c2c(NC(=O)C(F)(F)F)sc3c2CCCCC3)cc1 [JR6]", "property name": "pIC50", "relation": "<", "readout number": 3.60}
{"compound": "CC1CCN(C(=O)Nc2cc(Cl)cc(Cl)c2)CC1 [JC1]", "property name": "pIC50", "relation": "=", "readout number": 3.96}
{"compound": "CCCN1CCN(C(=O)Nc2cc(Cl)cc(Cl)c2)CC1 [JC8]", "property name": "pIC50", "relation": "≤", "readout number": 3.35}
{"compound": "CCN1CCN(C(=O)Nc2cc(Cl)cc(Cl)c2)CC1 [JC7]", "property name": "pIC50", "relation": "≤", "readout number": 3.35}
{"compound": "CC1CN(C(=O)Nc2cc(Cl)cc(Cl)c2)CC(C)O1 (centres unmarked) [JC9]", "property name": "pIC50", "relation": "<", "readout number": 3.30}
{"compound": "CCC1CCCCN1C(=O)Nc1cccc(Cl)c1 (centres unmarked) [JC3b]", "property name": "pIC50", "relation": "≥", "readout number": 3.30}
{"compound": "CC(=O)Nc1sc2c(c1C(=O)Nc1ccc(Cl)cc1)CCCCC2 [JR1b]", "property name": "pIC50", "relation": "<", "readout number": 3.60}
{"compound": "O=C(Nc1cc(Cl)cc(Cl)c1)N1CCCCC1 [JC4]", "property name": "pIC50", "relation": "<", "readout number": 3.30}
{"compound": "CC1CCCCN1C(=O)Nc1cc(Cl)cc(Cl)c1 (centres unmarked) [JC2]", "property name": "pIC50", "relation": "=", "readout number": 3.74}
